For each entry below, report its Inhibition value.
- Test system: Plasmodium falciparum
- Test: GSK_TCMDC: Inhibition of Plasmodium falciparum Dd2 in whole red blood cells, using parasite LDH activity as an index of growth. Test compounds present at 2uM
- Assay type: functional
Your answer is read as %, so omit the unit and give the number.

Input: Value lookup for Inhibition; key = `Cc1cc(NC2CCCC2)nc(Nc2ccccc2)n1`
Output: 75

Input: Value lookup for Inhibition; key = `Cc1cccc2nc(-c3ccc(-c4ccc(CN5CCN(c6ccncc6)CC5)cc4)s3)[nH]c12.O=C(O)C(F)(F)F`
Output: 98

Input: Value lookup for Inhibition; key = `O=C(Nc1ccc([N+](=O)[O-])cc1Cl)c1cc2ccccc2cc1O`
Output: 28

Input: Value lookup for Inhibition; key = Cc1ccccc1C1CCN(C2CCC(NC(=O)/C=C/c3c[nH]c4ccccc34)CC2)CC1 (stereo not given)
Output: 51

Input: Value lookup for Inhibition; key = `N#Cc1ccc2[nH]cc(C(=O)CCCCCN(Cc3ccccc3)Cc3ccccc3)c2c1`
Output: 97

Input: Value lookup for Inhibition; key = `Cl.Cl.N=C(N)c1ccc(-c2cc(-c3cccc(C(=N)N)c3)on2)cc1`
Output: 45

Input: Value lookup for Inhibition; key = `Nc1nc(N)c2c(Cc3ccccc3)cccc2n1`
Output: 3

Input: Value lookup for Inhibition; key = `Cc1noc(C)c1-c1ccc2c(Nc3ccccc3C(C)(C)C)c(C(=O)NCc3ccccc3)cnc2c1.Cl`
Output: 89

Input: Value lookup for Inhibition; key = `Cl.N=C1C=C(N)C(=O)c2ccccc21`
Output: 85

Input: Value lookup for Inhibition; key = `CC(C)(CNC(=O)C1CCN(Cc2ccc(Cl)cc2)CC1)c1nc(-c2ccc(Cl)c(O)c2)c(-c2ccncc2)[nH]1.Cl`
Output: 83

====

- System: Plasmodium falciparum
- Test: GSK_TCMDC: Inhibition of Plasmodium falciparum Dd2 in whole red blood cells, using parasite LDH activity as an index of growth. Test compounds present at 2uM
- Type: functional
I'd appreciate it if you could label each record using Inhibition and these ranges: low band = under 60%, middle band = from 60% up to 80%, high band = 80% and over

Input: Class (by measured Inhibition) for `Nc1ncnc2cc(-c3cccc(NC(=O)Nc4ccccc4)c3)sc12`
Output: low band

Input: Class (by measured Inhibition) for Nc1c(Cl)cc(C(O)CNCCCCCOCCc2ccccc2)cc1C(F)(F)F (centres undefined)
Output: high band

Input: Class (by measured Inhibition) for `N#Cc1ccc(CN2CCCN(Cc3cccc(NC(=O)c4ccc(Cl)c(Cl)c4)c3)CC2)cc1.O=C(O)C(F)(F)F`
Output: low band

Input: Class (by measured Inhibition) for `CN1CCN(c2ccnc3ccc(NC(=O)Nc4ccc5c(c4)CCC5=O)cc23)CC1`
Output: middle band

Input: Class (by measured Inhibition) for `N#Cc1ccc(N/C(=N\c2cccc(Cl)c2Cl)NC2Cc3ccccc3C2)c(O)c1`
Output: middle band

Input: Class (by measured Inhibition) for `CC(C)C[C@H](NC(=O)c1cccc(F)c1)C(=O)N[C@H](/C=N/NC(=O)c1ccccc1)CCc1ccccc1`
Output: middle band

Input: Class (by measured Inhibition) for `O=C(Cn1c(SCc2cccc(F)c2F)cc(=O)c2ccccc21)N(CCc1c[nH]cn1)Cc1ccc(-c2ccc(C(F)(F)F)cc2)cc1`
Output: middle band

Input: Class (by measured Inhibition) for `O=C(NCc1ccc(Cl)c(Cl)c1)c1ccc(-c2nc3cc(F)c(F)cc3[nH]2)cc1`
Output: low band

Input: Class (by measured Inhibition) for `CCCCCCCc1c(C)[nH]c2ccc(F)cc2c1=O`
Output: high band

Input: Class (by measured Inhibition) for `Cl.O=C(NCCCCN1CCC(c2ccc3c(c2OCCO)CCCC3)CC1)c1ccc2oc(-c3ccc(C(F)(F)F)cc3)cc2c1`
Output: low band

Input: Class (by measured Inhibition) for `CC(C)(C)c1ccc(-c2nc3c(ccc4nc(N)nc(N)c43)[nH]2)cc1.Cl`
Output: high band

Input: Class (by measured Inhibition) for `c1ccc(CCNc2nc(NCC(c3ccccc3)c3ccccc3)c3nc[nH]c3n2)cc1`
Output: high band

Input: Class (by measured Inhibition) for CCC(C)Oc1ccc2nc(N)nc(N)c2c1Cl (centres undefined)
Output: low band

Input: Class (by measured Inhibition) for `CN1CCN(c2cc(-c3cccnc3)nc(-c3ccncc3)n2)CC1`
Output: high band

Input: Class (by measured Inhibition) for `O=C(Nc1ccsc1)Nc1cccc(-c2cccc(-c3nc4cc(C(F)(F)F)ccc4[nH]3)c2)c1`
Output: high band

Input: Class (by measured Inhibition) for `CC(C)(C)c1ccc(CNC(=O)c2cc(CNC3CCNCC3)ccc2O)cc1`
Output: low band
